# Test system: Target C
# EXPERIMENTAL_DETAILS: RT-qPCR canonical junction panel assay, Target C mRNA
# Assay type: cell-based
# MEASUREMENT_CONTEXT: Table 4, read-out: Target C IC50 (decrease in CJ mRNA levels)
Where a name gives a salt, the structure may show the parent alone.
PROPERTY_LABEL: IC50

Look over these answered cases.
COc1nc(-c2ncc3cc(N4C[C@H](C)N[C@@H](C)C4)ccc3n2)cn2cc(C)nc12 | > 10 µM
CNC(=O)c1nc(-c2cc3cn(C)nc3cc2O)nc2ccc(N3CCN[C@@H](C)C3)cc12 | > 10 µM
Cc1c(O)c(-c2cc(Cl)c3cc(N4CCNCC4)cc(C)c3n2)cc2cn(C)nc12 [Compound 482, hydrochloride] | 1 to 10 µM
Cc1c(O)c(-c2ncc3cc(N4CCNC5(CC5)C4)ccc3n2)cc2cn(C)nc12 | 1 to 10 µM
C[C@H]1C[C@@H](c2ccc3nc(-c4cc5cn(C)nc5c(F)c4O)ccc3n2)CCN1 (single isomer, unassigned) | 0.1 to 1 µM

For each listed entry, give its IC50.
1. Cc1c(O)c(-c2nc(N(C)C)c3cc(N4CCNCC4)ccc3n2)cc2cn(C)nc12
2. CNC(=O)c1nc(-c2cc3cn(C)nc3c(F)c2O)nc2ccc(N3CCNC4(CC4)C3)cc12
3. CNC(=O)c1nc(-c2cc3cn(C)nc3c(C)c2O)nc2ccc(N3C[C@@H](C)N[C@H](C)C3)cc12 (single isomer, unassigned)

> 10 µM
1 to 10 µM
0.1 to 1 µM

###

# Tested on: HTT mRNA
# EXPERIMENTAL_DETAILS: RT-qPCR splicing assay, HTT mRNA canonical (CJ) and alternative (AJ) junction
# Assay type: cell-based, human
# MEASUREMENT_CONTEXT: Homo sapiens, HTT canonical junction mRNA, RT-qPCR; read-out: HTT CJ (decrease in CJ mRNA levels, IC50)
Could you please report measured IC50 for the items listed next?

Dear reader, for each entry below, please note its IC50.
1. Cc1nc2cc(O)c(-c3ccc4nc(N5CCC(NC(C)(C)C)C5)ccc4n3)cc2s1 (stereo not drawn)
2. CN[C@H]1CCN(c2cc3c(Cl)cc(-c4cc5cn(C)nc5c(C)c4O)nc3cc2C)C1
3. Cc1nc2cc(O)c(-c3ccc4nc(N5CC[C@@H](N(C)C(C)(C)C)C5)ccc4n3)cc2o1
4. Cc1nc2cc(O)c(-c3ccc4nc(N5CCC(NCC6CC6)C5)ccc4n3)cc2o1 (stereo not drawn) [Compound 389]
5. Cc1nc2c(F)c(O)c(-c3ccc4nc(N5CC[C@@H](NC(C)(C)C)C5)ccc4n3)cc2o1 (single isomer, unassigned)
6. CNC(=O)c1nc(-c2cc3cn(C)nc3c(C)c2O)nc2ccc(N3CCC(N4CCC4)CC3)cc12
7. Cn1cc2cc(-c3ccc4nc(C5CCNC[C@H]5O)ccc4n3)c(O)cc2n1 (single isomer, unassigned)
8. Cn1cc2cc(-c3ccc4nc([C@@H]5CCNC6(CC6)C5)ccc4n3)c(O)cc2n1 (single isomer, unassigned)

1: > 10 µM; 2: > 10 µM; 3: < 0.1 µM; 4: < 0.1 µM; 5: < 0.1 µM; 6: 0.1 to 1 µM; 7: > 10 µM; 8: < 0.1 µM
